Where these numbers come from: patent US11739098B2

molecular target: human TLR7 (Homo sapiens, UniProt Q9NYK1); test: TLR7 inhibition reporter assay (HEK-Blue cells, SEAP reporter, gardiquimod stimulation); settings: HEK-Blue cells overexpressing human TLR7, SEAP reporter, gardiquimod 7.5 μM
Sequence (Q9NYK1 27-1049): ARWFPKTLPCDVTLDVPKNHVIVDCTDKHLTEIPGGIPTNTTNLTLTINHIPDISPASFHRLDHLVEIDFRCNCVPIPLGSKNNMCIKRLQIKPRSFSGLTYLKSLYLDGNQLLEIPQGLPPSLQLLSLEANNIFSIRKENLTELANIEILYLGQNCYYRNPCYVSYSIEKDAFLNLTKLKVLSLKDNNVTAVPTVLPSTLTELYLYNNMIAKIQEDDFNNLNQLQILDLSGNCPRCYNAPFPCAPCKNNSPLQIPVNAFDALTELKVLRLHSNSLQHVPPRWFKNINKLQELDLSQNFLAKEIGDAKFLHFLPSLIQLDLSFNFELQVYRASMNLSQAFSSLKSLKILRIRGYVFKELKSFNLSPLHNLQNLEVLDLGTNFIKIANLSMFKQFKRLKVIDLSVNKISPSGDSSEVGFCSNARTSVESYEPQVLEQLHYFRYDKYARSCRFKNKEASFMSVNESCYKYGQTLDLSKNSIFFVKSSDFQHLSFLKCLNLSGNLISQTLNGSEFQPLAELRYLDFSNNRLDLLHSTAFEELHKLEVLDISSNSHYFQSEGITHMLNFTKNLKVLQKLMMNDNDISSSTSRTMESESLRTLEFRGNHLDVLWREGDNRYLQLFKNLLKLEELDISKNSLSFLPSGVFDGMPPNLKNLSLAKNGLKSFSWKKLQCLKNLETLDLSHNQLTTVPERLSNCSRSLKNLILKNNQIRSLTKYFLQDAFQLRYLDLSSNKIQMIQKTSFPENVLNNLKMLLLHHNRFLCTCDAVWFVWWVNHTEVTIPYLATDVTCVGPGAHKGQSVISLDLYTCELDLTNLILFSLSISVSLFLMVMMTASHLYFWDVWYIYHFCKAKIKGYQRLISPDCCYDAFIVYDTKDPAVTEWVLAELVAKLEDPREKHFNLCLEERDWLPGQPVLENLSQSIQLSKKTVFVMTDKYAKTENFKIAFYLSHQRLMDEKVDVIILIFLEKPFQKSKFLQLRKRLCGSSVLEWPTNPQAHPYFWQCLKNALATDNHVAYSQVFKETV
The following compounds are listed with their measured IC50 values.

Previously resolved entries follow.
INSERT INTO results (smilesstructure, valueobserved) VALUES
  ('Cc1cc(-c2[nH]c3ccc(C4CCNCC4)cc3c2C(C)C)cc2[nH]c(=O)oc12', '100 to 1000 nM'),
  ('Cc1cc(-c2[nH]c3ccc(C4CCN(CCS(C)(=O)=O)CC4)cc3c2C(C)C)cc2cnnn12', '< 100 nM'),
  ('CCc1c(-c2ccnc3[nH]ncc23)[nH]c2ccc(C3CCN(Cc4[nH]cnc4C)CC3)cc12', '100 to 1000 nM'),
  ('Cc1cc(-c2[nH]c3ccc(C4CCN(CC(N)=O)CC4)cc3c2C(C)C)cn2nnnc12', '< 100 nM'),
  ('COc1nc(-c2[nH]c3ccc(C4CCNCC4)cc3c2C(C)C)cn2ncnc12', '100 to 1000 nM');

Item COc1cc(-c2[nH]c3ccc(C4CCN(C(=O)CN(C)C)CC4)cc3c2C(C)C)cc2nc(C)cn12 : provide IC50 100 to 1000 nM

Item CC(C)c1c(-c2ccc3nccn3c2)[nH]c2ccc(C3CCN(C)CC3)cc12 : provide IC50 < 100 nM

Item CC(C)c1c(-c2ccnc3[nH]ncc23)[nH]c2ccc(C3CCN(Cc4ccc(OCCCN(C)C)cc4)CC3)cc12 : provide IC50 < 100 nM

Item Cc1cc(-c2[nH]c3ccc(C4CCN(CC#N)CC4)cc3c2C(C)C)cn2nnnc12 : provide IC50 < 100 nM

----------
target: UniProt Q9NR97; experiment: TLR8 inhibition reporter assay (HEK-Blue cells, SEAP reporter, R848 stimulation); details: HEK-Blue cells overexpressing human TLR8, SEAP reporter, R848 15.9 μM
Sequence (Q9NR97 27-1041): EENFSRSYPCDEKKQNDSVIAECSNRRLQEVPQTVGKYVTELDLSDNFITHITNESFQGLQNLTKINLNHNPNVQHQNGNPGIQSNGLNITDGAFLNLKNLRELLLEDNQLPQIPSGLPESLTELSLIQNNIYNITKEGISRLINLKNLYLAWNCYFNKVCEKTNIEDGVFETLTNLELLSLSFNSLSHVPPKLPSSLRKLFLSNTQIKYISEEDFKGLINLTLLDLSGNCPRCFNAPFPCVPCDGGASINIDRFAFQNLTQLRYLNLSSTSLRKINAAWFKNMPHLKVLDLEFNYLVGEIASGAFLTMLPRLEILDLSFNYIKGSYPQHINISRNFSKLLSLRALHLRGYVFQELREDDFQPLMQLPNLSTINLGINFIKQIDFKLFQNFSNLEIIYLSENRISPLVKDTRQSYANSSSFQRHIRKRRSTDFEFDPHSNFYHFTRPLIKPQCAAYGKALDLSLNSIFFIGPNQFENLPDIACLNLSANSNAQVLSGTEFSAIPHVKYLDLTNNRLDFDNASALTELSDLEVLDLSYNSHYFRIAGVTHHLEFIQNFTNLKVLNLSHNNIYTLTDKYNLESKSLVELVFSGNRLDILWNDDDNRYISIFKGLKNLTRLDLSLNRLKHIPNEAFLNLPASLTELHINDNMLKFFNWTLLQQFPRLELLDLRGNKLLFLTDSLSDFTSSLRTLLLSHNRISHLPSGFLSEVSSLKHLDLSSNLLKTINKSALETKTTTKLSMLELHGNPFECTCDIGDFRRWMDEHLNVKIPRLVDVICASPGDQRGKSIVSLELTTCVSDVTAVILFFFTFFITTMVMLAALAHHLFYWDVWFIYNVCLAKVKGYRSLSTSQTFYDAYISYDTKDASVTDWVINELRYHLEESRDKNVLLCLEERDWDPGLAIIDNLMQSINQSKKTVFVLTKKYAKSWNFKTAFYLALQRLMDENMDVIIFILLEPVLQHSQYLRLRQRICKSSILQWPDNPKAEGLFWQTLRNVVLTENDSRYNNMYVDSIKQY
metricName: IC50

Previously resolved entries follow.
INSERT INTO measurements (compound, metricname, valueobserved) VALUES
  ('CC(=O)N1CCN(CC(=O)N2CCC(c3ccc4[nH]c(-c5ccnc6[nH]ncc56)c(C(C)C)c4c3)CC2)CC1', 'IC50', '< 100 nM'),
  ('Cc1cc(-c2[nH]c3ccc(C4CCN(C(=O)CCN5C[C@H]6CC[C@@H](C5)O6)CC4)cc3c2C(C)C)cn2nnnc12', 'IC50', '< 100 nM'),
  ('CNC(=O)c1cn2cc(-c3[nH]c4ccc(C5CCNCC5)cc4c3C(C)C)cc(C)c2n1', 'IC50', '< 100 nM'),
  ('CC(C)c1c(-c2ccc3c(N)n[nH]c3c2)[nH]c2ccc(C3CCNCC3)cc12', 'IC50', '100 to 1000 nM'),
  ('Cc1c(-c2[nH]c3ccc(C4CCN(C(=O)CN(C)C)CC4)cc3c2C(C)C)cn2nnnc2c1C', 'IC50', '< 100 nM'),
  ('Cc1cc(-c2[nH]c3ccc(C4CCN(C5CCS(=O)(=O)CC5)CC4)cc3c2C(C)C)cn2nnnc12', 'IC50', '< 100 nM'),
  ('CCc1c(-c2ncnc3[nH]ccc23)[nH]c2ccc(C3CCNCC3)cc12', 'IC50', '< 100 nM'),
  ('CCc1c(-c2cnc3cn[nH]c3c2)[nH]c2ccc(C3CCNCC3)cc12', 'IC50', '100 to 1000 nM'),
  ('Cc1c(-c2[nH]c3ccc(C4CCNCC4)cc3c2C(C)C)ccc2c1cnn2C', 'IC50', '< 100 nM'),
  ('CC(C)c1c(-c2ccnc3[nH]ncc23)[nH]c2ccc(C3CCN(C(=O)CCN4CCCCC4)CC3)cc12', 'IC50', '< 100 nM');

Item Cc1cc(-c2[nH]c3ccc(C4CCN(C5CCOCC5)CC4)cc3c2C(C)C)cc2cccnc12 [Example 703] : provide IC50 < 100 nM

Item Cc1c(-c2ccnc3[nH]nnc23)[nH]c2ccc(C3CCNCC3)cc12 : provide IC50 1000 to 50000 nM

Item Cc1cc2nccn2cc1-c1[nH]c2ccc(C3CCN(CC(=O)N(C)C)CC3)cc2c1C(C)C : provide IC50 100 to 1000 nM

Item CCOc1cc(-c2[nH]c3ccc(C4CCN(CC(=O)NC)CC4)cc3c2C(C)C)cc2nc(C)nn12 : provide IC50 < 100 nM

Item CCc1c(-c2ccnc3[nH]ncc23)[nH]c2ccc(C3CCN(Cc4nc(C)oc4C)CC3)cc12 : provide IC50 < 100 nM

Item CCc1c(-c2ccnc3[nH]ncc23)[nH]c2ccc(C3CCN(C(=O)C4CCN(C)CC4)CC3)cc12 : provide IC50 < 100 nM

Item CNCC(=O)N1CCC(c2ccc3[nH]c(-c4cc(C)n5cncc5c4)c(C(C)C)c3c2)CC1 : provide IC50 < 100 nM

Item CC(C)c1c(-c2ccc3[nH]c(=O)oc3c2)[nH]c2ccc(C3CCNCC3)cc12 : provide IC50 < 100 nM
